src = patent US20260109763A1

- Measurement Target: T1, human PILRA G78 extracellular domain (recombinant hPILRA ECD) (human, UniProt Q9UKJ1 20-197)
- T1 construct: also called hPILRA G78
- T1 sequence (Q9UKJ1 20-197 R78G limits assumed): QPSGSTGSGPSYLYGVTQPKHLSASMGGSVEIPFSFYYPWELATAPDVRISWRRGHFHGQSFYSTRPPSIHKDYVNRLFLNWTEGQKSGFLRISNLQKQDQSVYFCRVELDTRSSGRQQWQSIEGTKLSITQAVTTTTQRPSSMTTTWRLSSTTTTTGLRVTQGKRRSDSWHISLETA
- Experimental Protocol: SPR, Biacore 8K; antibody captured via anti-human Fab, recombinant ECD injected; 1:1 fit;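 also: CM5 sensor chip, ECD analyte in threefold dilution series at 30 µL/min, 3 min association and 10 min dissociation, kon and koff fitted simultaneously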
Measured Kd accompanies every entry in the list below.

Binder	Kd
Anti-PILRA antibody clone 5 (antibody, human IgG1, kappa, L234A L235A, V domains shown, also called Ab; Clone 5; Ab.5) VH: QVQLVQSGAEVKKPGASVRVSCKASGYTFIGFYIHWVRQAPGQGLEWMGWINPESGDTTYAQKFQGRVTMTTDTSINTAYMDLNRLRSDDSAVYFCARGNWNFPDTFDFWGQGTMVIVSS VL: DIQMTQSPSSLSASVGDRVTITCRSSQSISIYLNWHQQIPGKAPKLLIYVASSLQSGIPSRFSGRGSGTEFTLTISSLQPEDFATYYCQQSYSAPFTFGPGTKVDIKR	0.66 nM

Field: next binder
Record Anti-PILRA antibody clone 11 (antibody, V domains shown) VH: EVKLVESGGGLVRPGGSQKLSCAVSGFAFSGYDMSWVRQTPEKRLEWVATISNGGRHTYYPDSVKGRFTISRDNARNTLYLQMSSLRSEDTALYYCARQKTWDVHAMDYWGQGTSVTVSS VL: QLVLTQSSSASFSLGASAKLTCTLSSQHSTYTIEWYQQQPLKPPKYVMELKKDGSHSTGDGIPDRFSGSSSGADRYLSISNIQPEDEAIYICGVGDTIKEQFVYVFGGGTKVTVL . Reported Kd: 140 nM
